- Test system: hMSC-TERT
- Recorded Conditions: 10 μM inhibitor in osteogenic inducing media, 6 days after induction, hMSC-TERT
Recorded Endpoint: Relative ALP activity

structure_smiles=O=C(O)c1cc(NCc2cc(O)ccc2O)ccc1O tested_on=hMSC-TERT val=0.9836
structure_smiles=N#CC(C#N)=Cc1ccc(O)c(O)c1 tested_on=hMSC-TERT val=0.7067
structure_smiles=CC(C)(C)c1cc(/C=C(\C#N)C(N)=S)cc(C(C)(C)C)c1O tested_on=hMSC-TERT val=0.7467
structure_smiles=N#CC(C#N)=Cc1ccc([N+](=O)[O-])c(O)c1 tested_on=hMSC-TERT val=1.156
structure_smiles=Cc1ccc(-c2nn(C(C)(C)C)c3ncnc(N)c23)cc1 tested_on=hMSC-TERT val=0.5665
structure_smiles=C/C(O)=C(\C#N)C(=O)Nc1cc(Br)ccc1Br tested_on=hMSC-TERT val=0.9154
structure_smiles=Cc1ccc(S(=O)(=O)/C=C/C#N)cc1 tested_on=hMSC-TERT val=Toxic
structure_smiles=O=C1Cc2c([nH]c3ccc(Br)cc23)-c2ccccc2N1 tested_on=hMSC-TERT val=0.2055
structure_smiles=Cc1ccc(NC(=O)c2cccc(N(C)C)c2)cc1NC(=O)c1ccc(O)cc1 tested_on=hMSC-TERT val=0.5373
structure_smiles=O=C(O)c1cc(N(Cc2ccccc2O)Cc2cc(O)ccc2O)ccc1O tested_on=hMSC-TERT val=0.4935

###

- System: hMSC-TERT
- Recorded Conditions: 10 μM inhibitor in osteogenic inducing media, 6 days after induction, hMSC-TERT
Recorded Endpoint: Relative ALP activity

structure_smiles=N#C/C(=C/c1ccc(O)c(O)c1)C(=O)NCc1ccccc1 recorded_endpoint="Relative ALP activity" val=0.3482
structure_smiles=Oc1cc(O)cc(/C=C/c2ccc(O)c(O)c2)c1 recorded_endpoint="Relative ALP activity" val=0.4885
structure_smiles=C=CC(=O)c1ccc2ccccc2c1 recorded_endpoint="Relative ALP activity" val=0.8946
structure_smiles=NC(N)=NCCNS(=O)(=O)c1cccc2cnccc12 recorded_endpoint="Relative ALP activity" val=0.9424
structure_smiles=N#CC(=Cc1ccc2[nH]ccc2c1)C(N)=C(C#N)C#N recorded_endpoint="Relative ALP activity" val=0.7902
structure_smiles=OC[C@H]1O[C@@H](n2cnc3cc(Cl)c(Cl)cc32)[C@H](O)[C@@H]1O recorded_endpoint="Relative ALP activity" val=0.5043
structure_smiles=O=S(=O)(NCCNC/C=C/c1ccc(Br)cc1)c1cccc2cnccc12 recorded_endpoint="Relative ALP activity" val=0.3847
structure_smiles=N#CC(C#N)=C(N)/C(C#N)=C/c1cc(O)c(O)c(O)c1 recorded_endpoint="Relative ALP activity" val=0.8566
structure_smiles=CN([C@@H](Cc1ccc(OS(=O)(=O)c2cccc3cnccc23)cc1)C(=O)N1CCN(c2ccccc2)CC1)S(=O)(=O)c1cccc2cnccc12 recorded_endpoint="Relative ALP activity" val=0.9222

###

- System: hMSC-TERT
- Recorded Conditions: 10 μM inhibitor in osteogenic inducing media, 6 days after induction, hMSC-TERT
Lab note: anything with Relative ALP activity at or over 0.6 counts as Fulfilled; the rest go in Not fulfilled.

structure_smiles=C[C@@H](N)[C@H]1CC[C@H](C(=O)Nc2ccncc2)CC1 cat="Not fulfilled"
structure_smiles=N#CC(C#N)=Cc1cc(O)c(O)c([N+](=O)[O-])c1 cat=Fulfilled
structure_smiles=O=S(=O)(c1cccc2c(Cl)cccc12)N1CCCNCC1 cat=Fulfilled
structure_smiles=O=C1Nc2ccc(I)cc2/C1=C/c1cc(Br)c(O)c(Br)c1 cat="Not fulfilled"
structure_smiles=COC[C@H]1OC(=O)c2coc3c2[C@@]1(C)C1=C(C3=O)[C@@H]2CCC(=O)[C@@]2(C)C[C@H]1OC(C)=O cat=Fulfilled

###

- Test system: hMSC-TERT
- Recorded Conditions: 1 μM inhibitor in osteogenic inducing media, 6 days after induction, hMSC-TERT
Recorded Endpoint: Relative ALP activity

compound="N#C/C(=C\\c1ccc(O)c(O)c1)C(=O)Nc1ccccc1 [AG-494]" val=0.8788
compound="Cc1ccc(NC(=O)c2cccc(N(C)C)c2)cc1NC(=O)c1ccc(O)cc1 [ZM 336372]" val=0.869
compound="OC[C@H]1O[C@@H](n2cnc3cc(Cl)c(Cl)cc32)[C@H](O)[C@@H]1O [DRB]" val=0.9718
compound="CC(C)n1cnc2c(NCc3ccccc3)nc(NCCO)nc21 [N9-Isopropyl-olomoucine]" val=1.128
compound="Oc1c2ccccc2c2c3c(cccc13)N=N2 [SP 600125]" val=0.5978
compound="Oc1cc(O)cc(/C=C/c2ccc(O)c(O)c2)c1 [Piceatannol]" val=0.783
compound="N#C/C(=C/c1ccc(O)c(O)c1)C(=O)NCc1ccccc1 [AG-490]" val=0.9657
compound="O=C(O)c1ccc2nc(-c3ccccc3)c(-c3ccccc3)nc2c1 [BML-257]" val=0.8443
compound="N#C/C(=C\\c1ccc(O)c(O)c1)C(N)=O [Tyrphostin 46]" val=1.179
compound="CN(C)CCCn1cc(C2=C(c3c[nH]c4ccccc34)C(=O)NC2=O)c2ccccc21 [GF 109203X]" val=0.3532

###

- System: hMSC-TERT
- Recorded Conditions: 1 μM inhibitor in osteogenic inducing media, 6 days after induction, hMSC-TERT
Recorded Endpoint: Relative ALP activity

molecule=CCCCCCCCCCCCC/C=C/[C@@H](O)[C@@H](N)CO tested_on=hMSC-TERT recorded_endpoint="Relative ALP activity" val=1.195
molecule=COc1cc2ncnc(Nc3cccc(Cl)c3)c2cc1OC tested_on=hMSC-TERT recorded_endpoint="Relative ALP activity" val=1.097
molecule="O.O.O=c1c(O)c(-c2ccc(O)c(O)c2)oc2cc(O)cc(O)c12 [Quercetin dihydrate]" tested_on=hMSC-TERT recorded_endpoint="Relative ALP activity" val=1.001
molecule=CC(C)c1cnc(NC(=O)Cc2ccccc2)s1 tested_on=hMSC-TERT recorded_endpoint="Relative ALP activity" val=1.001
molecule=Oc1ccc(-c2nc(-c3ccc(F)cc3)c(-c3ccncc3)[nH]2)cc1 tested_on=hMSC-TERT recorded_endpoint="Relative ALP activity" val=0.7708
molecule=O=C(O)c1cc(NCc2cc(O)ccc2O)ccc1O tested_on=hMSC-TERT recorded_endpoint="Relative ALP activity" val=0.8708
molecule=O=C1Nc2ccc(I)cc2/C1=C/c1cc(Br)c(O)c(Br)c1 tested_on=hMSC-TERT recorded_endpoint="Relative ALP activity" val=0.7969
molecule=NCCNS(=O)(=O)c1cccc2cnccc12 tested_on=hMSC-TERT recorded_endpoint="Relative ALP activity" val=0.9547
molecule=CNCCNS(=O)(=O)c1cccc2cnccc12 tested_on=hMSC-TERT recorded_endpoint="Relative ALP activity" val=1.701
molecule=N#CC(C#N)=Cc1ccc([N+](=O)[O-])c(O)c1 tested_on=hMSC-TERT recorded_endpoint="Relative ALP activity" val=0.9053
molecule=COC(=O)/C=C/c1cc(O)ccc1O tested_on=hMSC-TERT recorded_endpoint="Relative ALP activity" val=0.8892
molecule=N#C/C(=C\c1ccc(O)c(O)c1)C(N)=S tested_on=hMSC-TERT recorded_endpoint="Relative ALP activity" val=0.901
molecule=CN(C)c1ccc(/C=C2\C(=O)Nc3ccccc32)cc1 tested_on=hMSC-TERT recorded_endpoint="Relative ALP activity" val=0.7481
molecule=CO[C@H]1C[C@@H]2CC[C@@H](C)[C@@](O)(O2)C(=O)C(=O)N2CCCC[C@H]2C(=O)O[C@H]([C@H](C)C[C@@H]2CC[C@@H](O)[C@H](OC)C2)CC(=O)[C@H](C)/C=C(\C)[C@@H](O)[C@@H](OC)C(=O)[C@H](C)C[C@H](C)/C=C/C=C/C=C/1C tested_on=hMSC-TERT recorded_endpoint="Relative ALP activity" val=0.509
molecule=N#CC(=Cc1ccc2[nH]ccc2c1)C(N)=C(C#N)C#N tested_on=hMSC-TERT recorded_endpoint="Relative ALP activity" val=1.057
molecule=CC(C)(C)c1cc(C=C(C#N)C#N)cc(C(C)(C)C)c1O tested_on=hMSC-TERT recorded_endpoint="Relative ALP activity" val=0.3388
molecule="CCCCCCCCCCCCCCCC(=O)OC(CC(=O)O)C[N+](C)(C)C.[Cl-] (racemic)" tested_on=hMSC-TERT recorded_endpoint="Relative ALP activity" val=0.9966
molecule=O=c1cc(-c2ccc(O)cc2)oc2cc(O)cc(O)c12 tested_on=hMSC-TERT recorded_endpoint="Relative ALP activity" val=0.9029
molecule=O=C1Nc2ccccc2/C1=C1/Nc2ccccc2C1=O tested_on=hMSC-TERT recorded_endpoint="Relative ALP activity" val=0.3571
molecule=COCc1cc(O)c(O)c(O)c1-c1c(COC)cc(O)c(O)c1O tested_on=hMSC-TERT recorded_endpoint="Relative ALP activity" val=0.8861
molecule=Cn1cc(C2=C(c3cn(CCCSC(=N)N)c4ccccc34)C(=O)NC2=O)c2ccccc21 tested_on=hMSC-TERT recorded_endpoint="Relative ALP activity" val=0.3607
molecule=COc1cc2ncc(-c3ccccc3)nc2cc1OC tested_on=hMSC-TERT recorded_endpoint="Relative ALP activity" val=0.7685
molecule=Cc1cc(O)c2c(=O)c3c(O)cc(O)c4c5c(O)cc(O)c6c(=O)c7c(O)cc(C)c8c1c2c(c34)c(c78)c65 tested_on=hMSC-TERT recorded_endpoint="Relative ALP activity" val=0.8534
molecule=CC(C)(C)c1cc(/C=C(\C#N)C(N)=S)cc(C(C)(C)C)c1O tested_on=hMSC-TERT recorded_endpoint="Relative ALP activity" val=0.6801
molecule=O=C1Cc2c([nH]c3ccc(Br)cc23)-c2ccccc2N1 tested_on=hMSC-TERT recorded_endpoint="Relative ALP activity" val=0.5044
molecule=CC(C)c1cc(/C=C(\C#N)C(=O)NCCCc2ccccc2)cc(C(C)C)c1O tested_on=hMSC-TERT recorded_endpoint="Relative ALP activity" val=0.8711
molecule=O=S(=O)(c1cccc2cnccc12)N1CCCNCC1 tested_on=hMSC-TERT recorded_endpoint="Relative ALP activity" val=1.02
molecule=C[C@@H](N)[C@H]1CC[C@H](C(=O)Nc2ccncc2)CC1 tested_on=hMSC-TERT recorded_endpoint="Relative ALP activity" val=0.9848
molecule=N#CC(C#N)=Cc1cc(O)c(O)c(O)c1 tested_on=hMSC-TERT recorded_endpoint="Relative ALP activity" val=0.9397
molecule=O=c1c(-c2ccc(O)cc2)coc2cc(O)cc(O)c12 tested_on=hMSC-TERT recorded_endpoint="Relative ALP activity" val=1.215
molecule=COc1c(C=O)c(O)cc2c1C(=O)c1ccccc1C2=O tested_on=hMSC-TERT recorded_endpoint="Relative ALP activity" val=0.8711
molecule=CC[C@H](CO)Nc1nc(NCc2ccccc2)c2ncn(C(C)C)c2n1 tested_on=hMSC-TERT recorded_endpoint="Relative ALP activity" val=0.9865
molecule="CC1CNCCN1S(=O)(=O)c1cccc2cnccc12 (centres unmarked)" tested_on=hMSC-TERT recorded_endpoint="Relative ALP activity" val=1.087
molecule=O=S(=O)(c1cccc2c(I)cccc12)N1CCCNCC1 tested_on=hMSC-TERT recorded_endpoint="Relative ALP activity" val=1.031
molecule=Nc1ncc2[nH]cnc2n1 tested_on=hMSC-TERT recorded_endpoint="Relative ALP activity" val=1.017
molecule=C=CC(=O)c1ccc2ccccc2c1 tested_on=hMSC-TERT recorded_endpoint="Relative ALP activity" val=0.9444
molecule=NC(N)=NCCNS(=O)(=O)c1cccc2cnccc12 tested_on=hMSC-TERT recorded_endpoint="Relative ALP activity" val=0.9706
